Listed below: GI50 values for each entry.
Tested on: HCT-116
Experiment: NCI tumour cell line growth inhibition, 48 h
The source made the active and inactive calls. Rule as the data show it: active = GI50 up to about 1.1 µM and inactive = higher.

>  <molecule>
COc1ccc(NC(=O)CC/C(CC(=O)c2ccccc2Cl)=N\Nc2nnc(C)n2N)cc1

>  <assayed-target>
HCT-116

>  <GI50>
> 100 µM (inactive)

$$$$

Q: Indicate the recorded GI50 value for this molecule: O=C(CC(=O)C(=O)Nc1ccccc1)CC(c1ccccc1)c1c(O)c2ccccc2oc1=O (stereo not given)
Ans: > 100 µM (inactive)

Q: Return GI50 for the following molecule: `N=C(CC(=O)Nc1ccccn1)c1ccccc1`
Ans: > 100 µM (inactive)

Q: For the molecule CCCC1(NC(=O)C(F)(F)F)CC(OC)OC2COC(c3ccccc3)OC21 (stereo not given) , give its reported GI50.
Ans: 42.1 µM (inactive)

Q: Determine its reported GI50: `CNC(=O)C1(N)c2ccccc2C=Cc2ccccc21`
Ans: > 100 µM (inactive)

Q: Provide one value: measured GI50 of `CN1C(=O)CN=C(c2ccccc2F)c2cc(N=C=S)ccc21`
Ans: 44.3 µM (inactive)

---

Test system: SF-539
Assay: NCI tumour cell line growth inhibition, 48 h
Calls of active or inactive are those of the source. Rule as the data show it: active = GI50 up to about 1.1 µM and inactive = higher.
assay-readout: GI50

>  <compound>
CCN1c2ccccc2C(C(SC)S(=O)(=O)c2ccc(C)cc2)c2c1[nH]c(=O)n(C)c2=O (configuration not stated)

>  <assay-readout>
GI50

>  <test-result>
> 100 µM (inactive)

$$$$
>  <compound>
COc1cc(S(=O)(=O)Nc2nc(-c3ccc(N4C(=O)/C(=C\c5cccs5)N=C4c4ccccc4)cc3)cs2)ccc1Cl

>  <assay-readout>
GI50

>  <test-result>
49.9 µM (inactive)

$$$$
>  <compound>
CCOC(=O)C(NCc1cccc(C(F)(F)F)c1)(NC(=O)c1ccccc1)C(F)(F)F (configuration not stated)

>  <assay-readout>
GI50

>  <test-result>
24.2 µM (inactive)

$$$$
>  <compound>
COC(=O)C1(Cc2ccccc2C)Cc2ccc(C)cc2C1=O (configuration not stated)

>  <assay-readout>
GI50

>  <test-result>
37.5 µM (inactive)

$$$$
>  <compound>
CCOP(=O)(/C=C\n1ccc(N)nc1=O)OCC

>  <assay-readout>
GI50

>  <test-result>
> 100 µM (inactive)

$$$$
>  <compound>
Cc1c2cc(Cl)ccc2n2c(=O)c3ccccc3[nH]c(=O)c12

>  <assay-readout>
GI50

>  <test-result>
78.2 µM (inactive)

$$$$

Could you now consider this next compound?
Q: Using known records, supply GI50 for `COc1ccc2[nH]c3c(C)c4ncccc4c(C)c3c2c1`
Ans: 4.73 µM (inactive)

---

Measured GI50 of individual entries
Test system: SNB-19
Assay: NCI tumour cell line growth inhibition, 48 h
The source made the active and inactive calls. Cut-off read from the data, not from the text of the source: active = GI50 up to about 1.1 µM and inactive = higher.

Example compounds with recorded GI50:
>  <compound>
S=C(c1c[nH]c2ccccc12)N1CCN(c2ccccc2)CC1

>  <GI50>
> 100 µM (inactive)

$$$$
>  <compound>
Nc1nc(SCCC/C=C/B(O)O)nc2c1ncn2C1OC(COP(=O)(O)O)C(O)C1O (stereo not drawn)

>  <GI50>
> 203 µM (inactive)

$$$$
>  <compound>
CCCCCCCCCCCCCCCC(=O)NCC(COP(=O)([O-])OCC[N+](C)(C)C)OCC (stereo not drawn)

>  <GI50>
3.71 µM (inactive)

$$$$
>  <compound>
Cc1cc(N(CCC#N)S(=O)(=O)c2ccccc2)ccc1/C=N\c1cccc(C(=O)O)c1

>  <GI50>
> 100 µM (inactive)

$$$$
>  <compound>
CCCCCCCCCCCCCCCC(=O)NC1CCc2cc(O)c(O)c(O)c2-c2ccc(SC)c(=O)cc21 (stereo not drawn)

>  <GI50>
9.29 µM (inactive)

$$$$
>  <compound>
CO[C@@]1(c2ccccc2)O[C@H]2OCCC2[C@H]1c1ccc(Cl)cc1 (stereo partly drawn)

>  <GI50>
40.1 µM (inactive)

$$$$
>  <compound>
Cc1cc(C)nc(NS(=O)(=O)c2ccc(NC(=O)c3ccc(Cl)c4c(Nc5ccc(S(=O)(=O)Nc6cc(C)on6)cc5)c5ccccc5nc34)cc2)n1

>  <GI50>
17 µM (inactive)

$$$$
>  <compound>
CC1=CC(=C(c2ccc(N)c(C)c2)c2ccc(N)c(C)c2)C=CC1=N

>  <GI50>
0.689 µM (active)

$$$$

Q: Output measured GI50 for this item: `O=C1C(=Cc2ccc(F)cc2)C(=O)c2ccccc21`
Ans: > 100 µM (inactive)

Q: Complete the entry with GI50 for `Cc1ccc(C(=O)OC[C@H]2CC[C@@H](n3cc(N(C)C4CCCCC4)c(=O)[nH]c3=O)O2)cc1`
Ans: 19.3 µM (inactive)

Q: Please give measured GI50 of the following entry: `CCOC(=O)C1=C(C)Nc2ccccc2S1`
Ans: > 100 µM (inactive)

Q: Dear colleague, please send me the reported GI50 for `CSc1nc(C#N)c(/N=C\N(C)C)n1C` when you can.
Ans: > 100 µM (inactive)

Q: Query GI50 for `O=C1/C(=N/c2ccccc2)Oc2cc(O)ccc21`
Ans: > 100 µM (inactive)

Where do the numbers come from? From ChEMBL document CHEMBL1201862.
